Listing of entries alongside the reported normalized growth.
- experimentDescription: chemical genetic growth profiling, strain panel (AID 1159580);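 note: tested at 20 µM; growth read once vehicle control cultures reached saturation at 30 °C; 1 = growth at the plate median or of vehicle wells; lower values mean less growth of the strain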
- assayContext: S. cerevisiae deletion strains, growth OD, locus YHR142W, strain chs7, hits give low values
About 2,000 (36%) of roughly 5,500 compounds were called active. Another 18% or so got no clear call; they are omitted. Some of the results follow.

molecule	normalized growth
CN[C@@H]1[C@H](O)[C@H](NC)[C@H]2O[C@@]3(O)C(=O)C[C@@H](C)O[C@H]3O[C@@H]2[C@H]1O	0.995
COC(=O)c1c(C)c2c(c(C)c1O)OC(=O)c1c(C)c(Cl)c(O)c(Cl)c1O2	0.849
CC(Cc1cccc(C(F)(F)F)c1)NCCOC(=O)c1ccccc1 (configuration not stated)	0.925
Oc1c(Cl)cc(Cl)cc1Sc1cc(Cl)cc(Cl)c1O	0.0784
Cc1cn[nH]c1	1.06
CCN(CC)CCOCCOC(=O)C1(c2ccccc2)CCCC1	0.99
CCN1CCN(C(=O)NC(C(=O)N[C@@H]2C(=O)N3[C@@H]2SC(C)(C)[C@@H]3C(=O)O)c2ccccc2)C(=O)C1=O (some centres not stated)	0.998
CC(CCC(=O)O)[C@H]1CCC2C3CC[C@@H]4C[C@H](O)CC[C@]4(C)C3C=C[C@@]21C (some centres not stated)	0.839
O=C(O)C1=CCCNC1	1.02
CC(=O)Oc1ccc(O)cc1	0.996
CC(=O)O[C@H]1CC[C@@]2(C)C(=CC(=O)C3C4CCC(C(C)CCCC(C)C)[C@@]4(C)CCC32)C1 (some centres not stated)	0.979
CC(C)(C)NCC(O)c1ccc(O)c(CO)c1 (configuration not stated)	1
COc1cc(C(C)=O)cc(OC)c1O	1.03
N=C(N)N	1.02
CC(C)=CCc1c2c(c3occ(-c4ccc(O)c(O)c4)c(=O)c3c1O)C=CC(C)(C)O2	0.948
CC1=CC(=O)c2ccccc2C1=O	0.838
CN1CCN(C(=O)OC2c3nccnc3C(=O)N2c2ccc(Cl)cn2)CC1 (configuration not stated)	1.01
CC(=O)Oc1ccc(C(c2ccc(OC(C)=O)cc2)c2ccccn2)cc1	1.01
Cc1cc(=O)[nH]c(=S)[nH]1	0.952
O=C(O)c1cc(O)c2c(c1)[C@@H]([C@H]1c3cc(C(=O)O)cc(O)c3C(=O)c3c(O[C@H]4O[C@H](CO)[C@@H](O)[C@H](O)[C@H]4O)cccc31)c1cccc(O[C@H]3O[C@H](CO)[C@@H](O)[C@H](O)[C@H]3O)c1C2=O	1.09
O=C1NC(O)=NC1(c1ccccc1)c1ccccc1	1.03
Cc1scc2c1N(C(=O)CN1CCN(C)CC1)c1ccccc1NC2=O	0.942
CCOC(=O)NNc1nncc2ccccc12	1.04
CNNC	1.04
CC1=CCCC2C1(C)CCC(C)C2(C)CC/C(C)=C/C[n+]1cn(C)c2c(N)ncnc21 (configuration not stated)	0.881
COc1ccc([C@@H]2CC(=O)c3c(O)cc(O[C@@H]4O[C@H](CO[C@H]5O[C@@H](C)[C@H](O)[C@@H](O)[C@H]5O)[C@@H](O)[C@H](O)[C@H]4O)cc3O2)cc1O	1.01
CC(=O)O[C@H]1CC[C@@]2(C)C(C[C@@H](OC(C)=O)[C@@]3(C)C4=CC(=O)O[C@@H](c5ccoc5)[C@]4(C)CCC23)C1(C)C (some centres not stated)	1

Value source: PubChem BioAssay AID1159580
